// data source = ChEMBL document CHEMBL1961873

target: Death-associated protein kinase 1 (Homo sapiens); details: at 0.1 µM;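 also: reported figure is the mean inhibition of DAPK1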
# cutoff 7% applies to inhibition; >= gives class 1, < gives class 0

Example entries begin here.
[
  {
    "compound": "FC(F)(F)c1cccc(-c2nn3ncccc3c2-c2ccnc(Nc3ccc4c(c3)OCCO4)n2)c1",
    "class label": "class 0"
  },
  {
    "compound": "O=S(=O)(CCNCc1ccc(-c2ccc3ncnc(Nc4ccc(OCc5cccc(F)c5)c(Cl)c4)c3c2)o1)c1ccccc1",
    "class label": "class 1"
  },
  {
    "compound": "[O-][S+]1CCN(Cc2ccc(-c3ccc4ncnc(Nc5ccc(OCc6cccc(F)c6)c(Cl)c5)c4c3)o2)CC1",
    "class label": "class 0"
  },
  {
    "compound": "Clc1ccc(-c2nn3ncccc3c2-c2ccnc(Nc3ccccc3)n2)cc1",
    "class label": "class 0"
  }
]

Dear colleague, could you confirm whether CC1=C(C(=O)Nc2cc(Cl)c3[nH]ncc3c2)C(c2ccc(C(F)(F)F)cc2)CC(=O)N1 (stereo unspecified) has inhibition at or above 7%?
class 1

Textbook exercise: given the entry CN(C)CCOc1ccc(-c2nc(-c3ccncc3)c(-c3ccc4c(c3)CC/C4=N\O)[nH]2)cc1 , state whether its inhibition is greater than or equal to 7%.
class 0

###

biological target: Phosphorylase b kinase gamma catalytic chain, liver/testis isoform (Homo sapiens); details: at 1 µM;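 also: reported value is the mean inhibition of PHKG2 from the GSK_PKIS screening set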
Is inhibition at least 1%? Then 1. If not, 0.

[
  {
    "test smiles": "Fc1cccc(COc2ccc(Nc3ncnc4sc(-c5ccco5)cc34)cc2Cl)c1",
    "class label": 1
  },
  {
    "test smiles": "N#Cc1c(NC(=O)c2ccc(F)cc2)sc2c1CCCC2",
    "class label": 1
  },
  {
    "test smiles": "CCn1cc(-c2ccnc3[nH]ccc23)c(-c2cccc(NC(=O)Nc3ccc(OCc4ccccc4)cc3)c2)n1",
    "class label": 1
  },
  {
    "test smiles": "COc1cc(Nc2nccc(Nc3ccc4c(C)n[nH]c4c3)n2)cc(OC)c1OC",
    "class label": 0
  },
  {
    "test smiles": "O=C(O[C@H]1CN[C@H](C#Cc2cc3ncnc(Nc4ccc(Cc5ccccc5)cc4)c3s2)C1)N1CCOCC1",
    "class label": 1
  }
]

Does the reported inhibition for CC(C)(CO)CNC(=O)c1ccc2c(c1)/C(=N/Nc1ccc(S(N)(=O)=O)cc1)C(=O)N2 fall at or above the 1% mark?
1

Check the entry CCn1c(-c2nonc2N)nc2c(C#CC(C)(C)O)nc(OC[C@H](N)c3ccccc3)cc21 : does inhibition equal or exceed 1%?
1

Textbook exercise: given the entry Fc1ccc(-c2nn3ncccc3c2-c2ccnc(Nc3ccc4c(c3)OCCO4)n2)cc1 , state whether its inhibition is greater than or equal to 1%.
0

###

target: Serine/threonine-protein kinase PLK1 (Homo sapiens) (UniProt P53350); conditions: at 1 µM;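 also: reported value is a mean PLK1 inhibition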
Sequence (P53350 whole entry): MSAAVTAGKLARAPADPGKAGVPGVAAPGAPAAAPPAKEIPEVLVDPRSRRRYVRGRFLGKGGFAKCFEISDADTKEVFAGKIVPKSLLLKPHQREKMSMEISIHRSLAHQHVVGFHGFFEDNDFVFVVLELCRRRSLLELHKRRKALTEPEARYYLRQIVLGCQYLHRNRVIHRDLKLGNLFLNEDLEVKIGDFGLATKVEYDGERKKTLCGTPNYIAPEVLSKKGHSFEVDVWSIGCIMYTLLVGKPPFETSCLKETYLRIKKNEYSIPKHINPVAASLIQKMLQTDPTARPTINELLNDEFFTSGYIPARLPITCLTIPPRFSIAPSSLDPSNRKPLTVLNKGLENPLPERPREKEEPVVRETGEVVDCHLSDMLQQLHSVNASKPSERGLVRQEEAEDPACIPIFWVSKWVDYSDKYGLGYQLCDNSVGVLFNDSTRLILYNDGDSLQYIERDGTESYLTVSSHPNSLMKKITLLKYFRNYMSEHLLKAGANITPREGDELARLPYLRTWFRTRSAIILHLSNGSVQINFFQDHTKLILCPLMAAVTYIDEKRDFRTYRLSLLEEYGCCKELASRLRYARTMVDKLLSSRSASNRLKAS
In this section, each of the molecules is paired with its reported inhibition.
Numbers only; they are read as %.

[
  {
    "test smiles": "CCCN1CCC(c2ccc(Nc3nc(Nc4cc(F)ccc4C(N)=O)c4cc[nH]c4n3)c(OC)c2)CC1",
    "reading unit": "%",
    "readout number": 49.8
  },
  {
    "test smiles": "Cc1cccc(Nc2ncc(-c3ccccc3)o2)c1",
    "reading unit": "%",
    "readout number": 6.33
  },
  {
    "test smiles": "COc1ccc2c(-c3ccnc(Nc4cccc(OC(F)(F)F)c4)n3)cnn2n1",
    "reading unit": "%",
    "readout number": 3.9
  }
]

Determine from records and report inhibition for CCn1c(-c2nonc2N)nc2cnc(Oc3cccc(NC(=O)c4ccc(N(C)C)cc4)c3)cc21
1.97

Tell me its inhibition given CCN(CC)S(=O)(=O)c1ccc(OC)c(Nc2ncc(-c3ccccc3)o2)c1 as the entry.
0.24

Return reported inhibition. Input molecule: COC(=O)c1sc(-n2cnc3cc(OC)c(OC)cc32)cc1OCc1ccccc1C(F)(F)F
14.4

Please report the measured inhibition for COc1ccc(-c2nn3ncccc3c2-c2ccnc(Nc3ccc4c(c3)OCCO4)n2)cc1
2.45

Return the recorded inhibition value; entry: CCNC(=O)O[C@H]1CN[C@H](C#Cc2cc3ncnc(Nc4ccc(OCc5cccc(F)c5)c(Cl)c4)c3s2)C1
3.29

Please report inhibition for the following molecule: c1ccc(COc2ccc(Nc3ncnc4ccc(-c5ccco5)cc34)cc2)cc1
0.52

Read the entry CC(C)(CO)CNC(=O)c1ccc2c(c1)/C(=N/Nc1ccc(S(N)(=O)=O)cc1)C(=O)N2 and write its reported inhibition.
0.88

Please give measured inhibition of the following entry: CNC(=O)c1cccc(C#Cc2cncnc2Nc2ccc(OCc3cccc(F)c3)c(Cl)c2)c1
0.52

Please give the documented inhibition of COc1cc(Nc2nccc(Nc3ccc4c(C)n[nH]c4c3)n2)cc(OC)c1OC
4.34

Specify reported inhibition for the molecule shown: Cc1ccc2c(-c3ccnc(Nc4ccccc4)n3)c(-c3ccc(F)cc3)nn2n1
1.62

###

target: Cytoplasmic tyrosine-protein kinase BMX (Homo sapiens) (UniProt P51813); conditions: at 1 µM
Sequence (P51813 whole entry): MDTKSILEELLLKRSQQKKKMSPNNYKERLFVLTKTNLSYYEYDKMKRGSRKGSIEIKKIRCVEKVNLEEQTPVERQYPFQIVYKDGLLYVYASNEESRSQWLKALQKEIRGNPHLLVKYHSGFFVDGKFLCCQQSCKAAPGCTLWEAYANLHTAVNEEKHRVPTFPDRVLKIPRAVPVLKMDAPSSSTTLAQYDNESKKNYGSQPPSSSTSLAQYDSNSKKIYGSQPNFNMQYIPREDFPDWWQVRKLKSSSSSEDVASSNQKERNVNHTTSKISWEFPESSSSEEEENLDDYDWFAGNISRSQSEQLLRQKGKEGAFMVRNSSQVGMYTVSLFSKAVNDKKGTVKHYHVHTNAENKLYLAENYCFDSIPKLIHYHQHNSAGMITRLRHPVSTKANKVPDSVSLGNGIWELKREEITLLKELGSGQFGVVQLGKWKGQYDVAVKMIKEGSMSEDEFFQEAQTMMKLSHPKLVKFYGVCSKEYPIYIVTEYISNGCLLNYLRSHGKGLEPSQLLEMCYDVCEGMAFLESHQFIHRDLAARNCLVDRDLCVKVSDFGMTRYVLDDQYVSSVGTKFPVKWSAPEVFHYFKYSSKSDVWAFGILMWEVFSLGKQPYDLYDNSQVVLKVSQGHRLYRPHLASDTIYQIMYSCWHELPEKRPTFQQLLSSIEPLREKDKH
// values below are reported inhibition
Give the value in % but do not write % after it.

[
  {
    "test smiles": "Cc1cccc(Nc2ncc(-c3ccccc3)o2)c1",
    "study target": "Cytoplasmic tyrosine-protein kinase BMX (Homo sapiens) (UniProt P51813)",
    "reading unit": "%",
    "inhibition": 6.25
  }
]

Under Cytoplasmic tyrosine-protein kinase BMX (Homo sapiens) (UniProt P51813), report inhibition for COc1cc2c(cc1Nc1nc(Nc3ccsc3C(N)=O)c3cc[nH]c3n1)N(C(=O)CN(C)C)CCC2(C)C
5.73

Enter inhibition (test system Cytoplasmic tyrosine-protein kinase BMX (Homo sapiens) (UniProt P51813)) for CCn1cc(-c2ccnc3[nH]ccc23)c(-c2cccc(NC(=O)Nc3ccc(OCc4ccccc4)cc3)c2)n1;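 also: reported value is the mean percent inhibition of BMX, from the GSK PKIS kinase inhibitor screen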
-0.27

Provide Cytoplasmic tyrosine-protein kinase BMX (Homo sapiens) (UniProt P51813) inhibition reading for NC(=O)c1sc(-n2cnc3ccc(C(F)(F)F)cc32)cc1OCc1ccccc1Br .
2.91

###

target: Tyrosine-protein kinase Fgr (Homo sapiens); settings: at 0.1 µM;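 also: reported values are mean percent inhibition of FGR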
quantity: inhibition (%)
I only need the number, in %, no unit after it.

In the examples that follow, each entry is paired with its recorded inhibition.
[
  {
    "test smiles": "O=S(=O)(CCNCc1ccc(-c2ccc3ncnc(Nc4ccc(OCc5cccc(F)c5)c(Cl)c4)c3c2)o1)c1ccccc1",
    "inhibition (%)": 2.78
  },
  {
    "test smiles": "NS(=O)(=O)c1ccc(N/N=C2\\C(=O)Nc3ccc4ncccc4c32)cc1",
    "inhibition (%)": 8.01
  },
  {
    "test smiles": "CNC(=O)c1cncc(/C=C/c2ccccc2Cl)c1",
    "inhibition (%)": 5.13
  },
  {
    "test smiles": "c1cc(-c2cnn3nc(N4CCOCC4)ccc23)nc(NC2CC2)n1",
    "inhibition (%)": 3.22
  }
]

Give the reported inhibition for this compound. COC(=O)Nc1nc2ccc(Oc3ccc(NC(=O)Nc4cccc(Cl)c4)cc3)cc2[nH]1
2.28

Hello, please tell me recorded inhibition for this one: CS(=O)(=O)CCNCc1coc(-c2ccc3ncnc(Nc4ccc(OCc5ccccc5)cc4)c3c2)c1
3.94

Hello, please tell me recorded inhibition for this one: NC(=O)c1sc(-n2cnc3ccc(C(F)(F)F)cc32)cc1OCc1ccccc1Br
3.5

State, in one line, measured inhibition of COc1cc2c(cc1Nc1nc(Nc3ccsc3C(N)=O)c3cc[nH]c3n1)N(C(=O)CN(C)C)CCC2(C)C
1.11

###

target: Non-receptor tyrosine-protein kinase TYK2 (Homo sapiens); conditions: at 0.1 µM;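 also: each value is a mean of the inhibition readings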
# reported inhibition; entries follow
Give the number; % is assumed, so skip it.

[
  {
    "test smiles": "COc1cc(/C=N/Nc2ncnc3[nH]ncc23)ccc1O",
    "study target": "Non-receptor tyrosine-protein kinase TYK2 (Homo sapiens)",
    "quantity": "inhibition",
    "readout number": -2.44
  },
  {
    "test smiles": "COc1cc2ncn(-c3cc(OCc4ccccc4C(F)(F)F)c(C(=O)N(C)C)s3)c2cc1OC",
    "study target": "Non-receptor tyrosine-protein kinase TYK2 (Homo sapiens)",
    "quantity": "inhibition",
    "readout number": -4.64
  },
  {
    "test smiles": "CCn1c(-c2nonc2N)nc2c(C#CC(C)(C)O)ncc(OC3CCNCC3)c21",
    "study target": "Non-receptor tyrosine-protein kinase TYK2 (Homo sapiens)",
    "quantity": "inhibition",
    "readout number": 0.42
  }
]

Answer with the recorded inhibition for the compound listed here: CC(C)(CO)CNC(=O)c1ccc2c(c1)/C(=N/Nc1ccc(S(N)(=O)=O)cc1)C(=O)N2
-1.38

Give a short answer stating reported inhibition for COC(=O)c1sc(-n2cnc3cc(OC)c(OC)cc32)cc1OCc1ccccc1C(F)(F)F .
-1.4
